Values from PubChem BioAssay (NCI)

Test system: SK-MEL-2 melanoma
MEASUREMENT DESCRIPTION: NCI-60 one-dose screen, 48 h (100 = growth as untreated, 0 = no growth, -100 = all killed)
EXPERIMENTAL SETUP: 10 µM unless noted
About 83,000 compounds went through this panel and 20% of them were active in at least one assay; those are over-represented in the sample as a whole. Active and inactive are the calls of the source. The calls were made as follows: active = growth percent below 10; inactive = the rest.
MEASUREMENT KIND: growth

As a guide, the following entries are already answered.
{"columns": ["COMPOUND", "MEASUREMENT KIND", "REPORTED VALUE"],
 "data": [
  ["OB(O)c1ccsc1-c1nc2ccc3[nH]ncc3c2c2c1CCCC2", "growth", "55.9% (inactive)"],
  ["Cc1ccc(/C=C/c2c(C(=O)/C=C/c3ccccc3)c(C)nc3ccccc23)cc1", "growth", "2.34% (active)"],
  ["CC[C@@H]1NC(=O)[C@H]([C@H](O)[C@H](C)C/C=C/c2ccc(CN3C(=O)C(C)=C(C)C3=O)cc2)N(C)C(=O)[C@H](C(C)C)N(C)C(=O)[C@H](CC(C)C)N(C)C(=O)[C@H](CC(C)C)N(C)C(=O)[C@@H](C)NC(=O)[C@H](C)NC(=O)[C@H](CC(C)C)N(C)C(=O)[C@H](C(C)C)NC(=O)[C@H](CC(C)C)N(C)C(=O)CN(C)C1=O", "growth", "81% (inactive)"],
  ["O=C1CCc2c(sc3[nH]c(=S)n(Cc4ccc(Cl)cc4)c(=O)c23)C1", "growth", "-20.9% (active)"],
  ["COc1cc(N=Nc2ccc(O)c3ncccc23)c2ncccc2c1", "growth", "61.3% (inactive)"]
]}

State its growth for this compound: CCN(CC)CCOc1ccc(/C(=C(\Cl)c2ccccc2)c2ccccc2)cc1
7.89% (active)

Read off the recorded growth for O=C1c2cccc3cccc(c23)C(=O)N1N1C(=O)c2cccc3c(N4CCNCC4)ccc(c23)C1=O
101% (inactive)

For Cc1ccc(-c2nc3nc(-c4ccc(F)cc4)nc(N4CCCNCC4)c3o2)cc1 , write its growth.
-61.2% (active)

Check the records and state growth for CCCCCCCCCCCCCCCC[N+](C)(C)CCN(Cc1ccc(OC)cc1)c1ncccn1
59.8% (inactive)

Look up growth of N#CC1C(=O)c2ccccc2C1c1ccccc1 (stereo not drawn) and report it.
103% (inactive)

Look up and state reported growth for CN(Cc1ccccc1)c1nc(Cl)c(C2CC(c3ccc4c(c3)OCO4)=NN2c2cc(Cl)cc(Cl)c2)s1 (stereo not drawn)
101% (inactive)

Consider the compound C=CCN1C=CC(=O)[C@H](O[Si](C)(C)C(C)(C)C)[C@@H]1/C=C/c1ccccc1 and give its recorded growth.
-57% [100 µM] (active)

Please indicate growth recorded for CCCCCCCCCCCCCCCCCCn1cc(COc2ccc(C=O)cc2)nn1
96.4% (inactive)

====

System: RXF 393 renal
MEASUREMENT DESCRIPTION: NCI-60 one-dose screen, 48 h
EXPERIMENTAL SETUP: 10 µM unless noted
Compounds without any hit were thinned out: in the full panel of roughly 83,000, 20% have a hit. Active and inactive are the calls of the source. Rule for the calls: active = growth percent below 10; inactive = the rest.
Bench note: report the call from active, inactive

{"columns": ["CHEMICAL SMILES", "CATEGORY"],
 "data": [
  ["N#Cc1cc(-c2ccnc(Nc3ccc(NC(=O)CCl)cc3)n2)ccc1N1CCCC1", "active"],
  ["COC(=O)/C=C1/SC(=Nc2ccc([N+](=O)[O-])cc2)N(CCc2c[nH]c3ccccc23)C1=O", "inactive"]
]}

Dear all, I need the recorded test outcome for Fc1ccccc1-c1cnn2cc(-c3ccccc3)cnc12 , thank you.
inactive
